Experiment: ATG_Oct_MLP_CIS: Attagene CIS-FACTORIAL HepG2 Assay for human Octamer-Binding Transcription Factor (Oct) (AID 2282993)
Conditions: HepG2 Attagene cis-factorial Oct reporter, mRNA; actives raise or lower the signal
Active and inactive are the calls of the source. How the source made its calls: active means hit-call score of the fitted dose curve at least 0.9, where 1 is the maximum; inactive means score below 0.9.
// classify into label 1 = active, label 0 = inactive

Solved entries:
compound="OC1C(O)C(O)C(O)C(O)C1O (centres undefined)" cat="label 0"
compound=CCCCCCCCCC=O cat="label 0"
compound=COc1c(Cl)c(Cl)c(Cl)c(Cl)c1Cl cat="label 0"
compound=CCOc1ccccc1OCC cat="label 0"

Ask | For this compound, state the assay outcome: O=Cc1ccc(F)cc1
Reply | label 0

Ask | For this compound, state the assay outcome: CC1(C)[C@H](C(=O)OCc2cccc(Oc3ccccc3)c2)[C@@H]1C=C(Cl)Cl
Reply | label 0

Ask | For this compound, state the assay outcome: O=C(O)c1ccc(C(=O)O)cc1
Reply | label 0

Ask | For this compound, state the assay outcome: CN1[C@@H]2CC(OC(=O)[C@H](CO)c3ccccc3)C[C@H]1[C@@H]1O[C@@H]12 (some centres undefined)
Reply | label 0

Ask | For this compound, state the assay outcome: COc1cc2ncnc(Nc3cccc(Cl)c3)c2cc1OC
Reply | label 1

Ask | For this compound, state the assay outcome: O=[N+]([O-])c1ccc(C=Cc2ccc([N+](=O)[O-])cc2S(=O)(=O)O)c(S(=O)(=O)O)c1
Reply | label 0

Ask | For this compound, state the assay outcome: Cc1ccc(S)cc1
Reply | label 0

Ask | For this compound, state the assay outcome: NCCCN1CCOCC1
Reply | label 0

Ask | For this compound, state the assay outcome: CCc1ccc(C=O)cc1
Reply | label 0

Ask | For this compound, state the assay outcome: CCC(=O)OCc1ccccc1
Reply | label 0

###

Test: CPHEA_Stoker_NIS_Cytotoxicity: Cytotoxicity Assessment for CPHEA's Radioactive Iodide Uptake (RAIU) Assay for Sodium/Iodide Symporter (NIS) Inhibition, Stoker and Laws Labs (AID 2283897)
Active and inactive are the calls of the source. Rule for the calls: active = hit-call score of the fitted dose curve at least 0.9, where 1 is the maximum; inconclusive = response in the unintended direction; inactive = score below 0.9.
Attribute measured: outcome

Would you please look over these solved cases?
compound=c1ccc(CCCc2ccccn2)cc1 result=inactive
compound=COc1cc(C(C)(C)C)c(O)c(C(C)(C)C)c1 result=inactive
compound="CCCCCCCCCCCCCCCCCC(=O)OCC(CC)CCCC (stereo not drawn)" result=inactive
compound="BrC1CCC(Br)C(Br)CCC(Br)C(Br)CCC1Br (stereo not drawn)" result=inactive
compound=Cc1ccc(O)c(C(C)(C)C)c1 result=inactive
compound=CC(C)=CCCC(C)=CCCC(C)=CCO result=inactive
compound=CCCCCCCCCCCCCOS(=O)(=O)O result=inactive

Shift focus to the following entry.
# compound CC(C)C[C@H]1C(=O)N2CCC[C@H]2[C@]2(O)O[C@](NC(=O)[C@@H]3C=C4c5cccc6[nH]c(Br)c(c56)C[C@H]4N(C)C3)(C(C)C)C(=O)N12 ; its outcome = inactive

###

Experiment: ATG_ISRE_CIS: Attagene CIS-FACTORIAL HepG2 Assay for human Interferon Regulatory Factor 1 (IRF1) binding to an Interferon-Stimulated Response Element (ISRE) (AID 2282948)
Settings: HepG2 ISRE cis-reporter (Attagene), mRNA transcription readout; actives raise or lower the signal
Calls of active or inactive are those of the source. The calls were made as follows: active = hit-call score of the fitted dose curve at least 0.9, where 1 is the maximum; inactive = score below 0.9.
// classify into active, inactive

molecule=C=C(C)[C@@H]1CC[C@@H](C)C[C@@H]1O cat=inactive

Please turn your attention to the following entry.
Ask | For this molecule, state the assay outcome: Nc1cccc(S(=O)(=O)c2cccc(N)c2)c1
Reply | inactive
